tested on: Huh-7; experiment: cells; conditions: Homo sapiens, Huh-7, 72 h
pIC50: −log10 of the molar value.
Param threshold (8) applies to pIC50; output T when value >= threshold, F when value < threshold.

{"columns": ["compound", "category-label"],
 "data": [
  ["COC[C@@H]1CCCN1c1cc(NC(=O)N2CCCc3cc(CN4CCOCC4=O)c(C=O)nc32)ncc1C#N", "F"],
  ["COc1ccccc1Oc1cc(NC(=O)N2CCCc3cc(CN4CCOCC4=O)c(C=O)nc32)ncc1C#N", "F"],
  ["CO[C@@H]1CCC[C@H]1Nc1cc(NC(=O)N2CCCc3cc(CN4CCOCC4=O)c(C=O)nc32)ncc1C#N", "T"],
  ["COC[C@H](C)Nc1cc(NC(=O)N2CCCc3cc(CN4CC[C@H](OC)C4=O)c(C=O)nc32)ncc1C#N", "F"],
  ["CN(C)C1CCN(c2cc(NC(=O)N3CCCc4cc(CN5CCOCC5=O)c(C=O)nc43)ncc2C#N)C1 (centres undefined)", "F"],
  ["COc1ccncc1Nc1cc(NC(=O)N2CCCc3cc(CN4CCOCC4=O)c(C=O)nc32)ncc1C#N", "F"]
]}

---

biological target: Platelet-derived growth factor receptor alpha (Homo sapiens, UniProt P16234)
Sequence (P16234 whole entry): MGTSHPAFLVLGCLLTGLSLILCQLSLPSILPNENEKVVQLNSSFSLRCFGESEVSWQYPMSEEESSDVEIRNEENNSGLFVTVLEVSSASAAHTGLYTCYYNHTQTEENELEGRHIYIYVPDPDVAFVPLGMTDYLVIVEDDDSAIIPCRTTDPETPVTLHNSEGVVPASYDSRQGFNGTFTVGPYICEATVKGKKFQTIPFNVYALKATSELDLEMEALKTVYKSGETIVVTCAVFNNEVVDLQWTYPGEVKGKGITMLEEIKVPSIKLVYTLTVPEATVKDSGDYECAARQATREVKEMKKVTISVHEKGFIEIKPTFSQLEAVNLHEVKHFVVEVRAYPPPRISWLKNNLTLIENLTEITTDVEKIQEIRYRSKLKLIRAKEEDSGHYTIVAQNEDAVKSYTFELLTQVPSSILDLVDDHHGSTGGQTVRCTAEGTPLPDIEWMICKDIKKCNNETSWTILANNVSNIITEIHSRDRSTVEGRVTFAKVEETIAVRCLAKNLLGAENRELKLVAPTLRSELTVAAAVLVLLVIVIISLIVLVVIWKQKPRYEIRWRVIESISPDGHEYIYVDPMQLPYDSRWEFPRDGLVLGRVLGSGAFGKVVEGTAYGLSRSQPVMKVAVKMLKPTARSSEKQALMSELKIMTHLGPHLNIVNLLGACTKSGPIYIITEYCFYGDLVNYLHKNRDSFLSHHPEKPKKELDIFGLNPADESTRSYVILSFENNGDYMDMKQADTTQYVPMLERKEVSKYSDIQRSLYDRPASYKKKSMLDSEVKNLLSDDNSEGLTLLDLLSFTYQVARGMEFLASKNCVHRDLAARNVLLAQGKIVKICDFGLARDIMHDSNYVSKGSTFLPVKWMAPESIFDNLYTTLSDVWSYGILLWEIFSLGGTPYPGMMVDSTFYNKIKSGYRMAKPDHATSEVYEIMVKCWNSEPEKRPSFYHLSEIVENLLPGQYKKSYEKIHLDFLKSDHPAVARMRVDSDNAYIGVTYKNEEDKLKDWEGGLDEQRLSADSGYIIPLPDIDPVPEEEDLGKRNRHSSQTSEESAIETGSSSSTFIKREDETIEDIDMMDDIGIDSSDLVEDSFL

{"columns": ["given-smiles", "tested-target", "IC50"],
 "data": [
  ["COC[C@@H](C)Nc1cc(NC(=O)N2CCCc3cc(CN4CCCCOC4=O)c(C=O)nc32)ncc1C#N", "Platelet-derived growth factor receptor alpha (Homo sapiens, UniProt P16234)", "> 10 µM"]
]}

---

biological target: Macrophage-stimulating protein receptor (Homo sapiens, UniProt Q04912)
Sequence (Q04912 25-304 limits assumed): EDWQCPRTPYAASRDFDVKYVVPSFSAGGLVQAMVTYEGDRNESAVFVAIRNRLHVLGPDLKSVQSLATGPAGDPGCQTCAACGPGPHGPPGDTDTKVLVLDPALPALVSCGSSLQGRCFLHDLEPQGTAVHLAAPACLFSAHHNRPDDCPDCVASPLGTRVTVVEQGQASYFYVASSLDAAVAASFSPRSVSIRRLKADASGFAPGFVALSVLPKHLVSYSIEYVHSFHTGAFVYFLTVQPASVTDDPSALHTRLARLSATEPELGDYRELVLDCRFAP
Sequence (Q04912 310-1400 limits assumed): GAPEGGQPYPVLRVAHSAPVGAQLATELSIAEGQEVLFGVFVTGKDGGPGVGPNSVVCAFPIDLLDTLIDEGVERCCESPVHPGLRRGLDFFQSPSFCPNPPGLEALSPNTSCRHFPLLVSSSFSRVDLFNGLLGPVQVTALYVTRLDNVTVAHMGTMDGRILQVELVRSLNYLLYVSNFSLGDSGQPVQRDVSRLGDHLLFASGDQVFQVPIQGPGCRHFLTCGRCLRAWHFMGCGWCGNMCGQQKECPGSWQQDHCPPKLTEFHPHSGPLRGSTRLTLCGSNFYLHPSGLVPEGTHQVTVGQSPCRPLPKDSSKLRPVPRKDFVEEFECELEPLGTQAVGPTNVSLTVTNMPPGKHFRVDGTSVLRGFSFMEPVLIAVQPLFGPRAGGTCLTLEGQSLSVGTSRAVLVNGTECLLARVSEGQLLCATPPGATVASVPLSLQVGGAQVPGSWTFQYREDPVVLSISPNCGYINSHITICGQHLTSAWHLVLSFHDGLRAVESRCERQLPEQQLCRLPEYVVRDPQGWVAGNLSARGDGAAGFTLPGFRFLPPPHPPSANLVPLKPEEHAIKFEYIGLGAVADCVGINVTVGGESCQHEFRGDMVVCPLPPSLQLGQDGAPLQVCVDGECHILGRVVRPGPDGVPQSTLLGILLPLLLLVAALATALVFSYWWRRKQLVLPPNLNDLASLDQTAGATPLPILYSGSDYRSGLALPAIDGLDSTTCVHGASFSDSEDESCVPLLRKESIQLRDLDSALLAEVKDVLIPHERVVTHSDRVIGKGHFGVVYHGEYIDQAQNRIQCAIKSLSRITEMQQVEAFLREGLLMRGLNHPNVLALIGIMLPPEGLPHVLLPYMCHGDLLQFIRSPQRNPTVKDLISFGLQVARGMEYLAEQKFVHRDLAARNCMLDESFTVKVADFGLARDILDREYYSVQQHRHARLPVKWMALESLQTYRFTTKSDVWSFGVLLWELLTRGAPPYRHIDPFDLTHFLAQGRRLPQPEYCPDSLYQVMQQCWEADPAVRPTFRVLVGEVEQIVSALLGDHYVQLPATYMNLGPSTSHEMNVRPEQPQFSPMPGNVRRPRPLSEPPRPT

{"columns": ["given-smiles", "IC50"],
 "data": [
  ["COC[C@@H](C)Nc1cc(NC(=O)N2CCCc3cc(CN4CCCCOC4=O)c(C=O)nc32)ncc1C#N", "> 10 µM"]
]}

---

system: Huh-7; experiment: cells; settings: Homo sapiens, Huh-7, 72 h
IC50 vs 30 nM: less than gives met; not less than gives not met.

{"columns": ["given-smiles", "category-label"],
 "data": [
  ["COC[C@@H](C)Nc1cc(NC(=O)N2CCCc3cc(CN4CCCCOC4=O)c(C=O)nc32)ncc1C#N", "met"],
  ["COCCNc1cc(NC(=O)N2CCCc3cc(CN4CCN(C)CC4=O)c(C=O)nc32)ncc1C#N", "met"],
  ["N#Cc1cnc(NC(=O)N2CCCc3cc(CN4CCOCC4=O)c(C=O)nc32)cc1S[C@H]1CCOC1", "not met"],
  ["COCCNc1cc(NC(=O)N2CCCc3cc(CN4CCOCC4=O)c(C=O)nc32)ncc1C#N", "met"],
  ["COCCSc1cc(NC(=O)N2CCCc3cc(CN4CCOCC4=O)c(C=O)nc32)ncc1C#N", "not met"],
  ["COCCOc1cc(NC(=O)N2CCCc3cc(CN4CCOCC4=O)c(C=O)nc32)ncc1C#N", "not met"],
  ["CO[C@@H]1CCN(Cc2cc3c(nc2C=O)N(C(=O)Nc2cc(N[C@@H]4CCOC4)c(C#N)cn2)CCC3)C1=O", "met"],
  ["COC[C@@H](C)Oc1cc(NC(=O)N2CCCc3cc(CN4CCCCOC4=O)c(C=O)nc32)ncc1C#N", "met"],
  ["N#Cc1cnc(NC(=O)N2CCCc3cc(CN4CCCCOC4=O)c(C=O)nc32)cc1N[C@@H]1CCOC1", "met"],
  ["N#Cc1cnc(NC(=O)N2CCCc3cc(CN4CCCCOC4=O)c(C=O)nc32)cc1N[C@H]1CCOC1", "met"],
  ["CO[C@H]1CCN(c2cc(NC(=O)N3CCCc4cc(CN5CCOCC5=O)c(C=O)nc43)ncc2C#N)C1", "met"],
  ["CO[C@H]1CCN(c2cc(NC(=O)N3CCCc4cc(CN5C(=O)OC[C@@H]5C)c(C=O)nc43)ncc2C#N)C1", "not met"],
  ["COC[C@@H](C)Oc1cc(NC(=O)N2CCCc3cc(CN4CCOCC4=O)c(C=O)nc32)ncc1C#N", "met"],
  ["COCCNc1cc(NC(=O)N2CCCc3cc(CN4CC[C@@H](OC)C4=O)c(C=O)nc32)ncc1C#N", "met"],
  ["N#Cc1cnc(NC(=O)N2CCCc3cc(CN4CCOCC4=O)c(C=O)nc32)cc1S[C@@H]1CCOC1", "not met"],
  ["CO[C@H]1CCOC[C@@H]1Oc1cc(NC(=O)N2CCCc3cc(CN4CCOCC4=O)c(C=O)nc32)ncc1C#N", "not met"]
]}
